Taken from patent US20250236673A1.

kon by entry:
- SYSTEM UNDER TEST: T1, recombinant human CEACAM5 (human, UniProt P06731 35-685, limits assumed)
- T1 construct: Immobilised by amine coupling on a CM5 chip
- T1 sequence (looked up): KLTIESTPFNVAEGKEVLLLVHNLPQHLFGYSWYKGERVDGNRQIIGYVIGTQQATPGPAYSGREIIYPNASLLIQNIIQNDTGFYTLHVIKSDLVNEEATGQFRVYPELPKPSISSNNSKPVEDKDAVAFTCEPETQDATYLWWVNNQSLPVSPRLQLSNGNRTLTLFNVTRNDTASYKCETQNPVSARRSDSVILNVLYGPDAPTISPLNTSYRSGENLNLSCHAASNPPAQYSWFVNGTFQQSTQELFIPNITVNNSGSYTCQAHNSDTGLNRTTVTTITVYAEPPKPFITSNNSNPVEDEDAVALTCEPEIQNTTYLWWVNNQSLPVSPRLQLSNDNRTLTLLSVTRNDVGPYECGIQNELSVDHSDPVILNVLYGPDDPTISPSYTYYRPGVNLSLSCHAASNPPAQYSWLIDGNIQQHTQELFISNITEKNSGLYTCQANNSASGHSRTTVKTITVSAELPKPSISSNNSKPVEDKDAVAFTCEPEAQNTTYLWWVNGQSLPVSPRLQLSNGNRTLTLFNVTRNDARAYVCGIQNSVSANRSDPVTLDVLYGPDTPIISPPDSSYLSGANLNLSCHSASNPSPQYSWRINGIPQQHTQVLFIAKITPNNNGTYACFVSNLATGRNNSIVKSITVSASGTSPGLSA
- ASSAY NAME: SPR Biacore 8K+, CEACAM5 amine-coupled on CM5, ISVD analyte, 1:1 fit
Dear colleague, please return just the value in M⁻¹ s⁻¹, with no unit written.

Ask | Look up kon: T028501798 (VHH, K64H vs precursor T028501789; also called A0315007E07(K64H)) VHH: EVQLVESGGGVVQPGGSLRLSCAASGLTFSTYTMGWFRQAPGKEREFVAAIIWSGSNTYYADSVHGRFTISRDNAKNTVYLQMNSLRPEDTALYYCAAQHFGPIGLTTRGYHYWGQGTLVTVSS
Reply | 402000

Ask | Look up kon: T028501819 (VHH, K43Q vs precursor T028501817; also called A0315024B02(M43Q, Q64K, K83R)) VHH: EVQLVESGGGVVQPGGSLRLSCAASGHTFSEYALGWFRQAPGQEREFVAAINWGGGWTYYADSVKGRFTISRDNAKNTLYLQMNSLRPEDTALYYCAASSDYAGGNPTGYPYWGQGTLVTVSS
Reply | 228000

Ask | Look up kon: T028501794 (VHH, K43A (Kabat) vs precursor T028501789; also called A0315007E07(K43A)) VHH: EVQLVESGGGVVQPGGSLRLSCAASGLTFSTYTMGWFRQAPGAEREFVAAIIWSGSNTYYADSVKGRFTISRDNAKNTVYLQMNSLRPEDTALYYCAAQHFGPIGLTTRGYHYWGQGTLVTVSS
Reply | 562000

Ask | Look up kon: T028501830 (VHH, K75R vs precursor T028501817; also called A0315024B02(M43K, Q64K, K75R, K83R)) VHH: EVQLVESGGGVVQPGGSLRLSCAASGHTFSEYALGWFRQAPGKEREFVAAINWGGGWTYYADSVKGRFTISRDNARNTLYLQMNSLRPEDTALYYCAASSDYAGGNPTGYPYWGQGTLVTVSS
Reply | 344000
